- studySystem: hGcgR (Homo sapiens, UniProt P47871)
- Sequence (P47871 26-477): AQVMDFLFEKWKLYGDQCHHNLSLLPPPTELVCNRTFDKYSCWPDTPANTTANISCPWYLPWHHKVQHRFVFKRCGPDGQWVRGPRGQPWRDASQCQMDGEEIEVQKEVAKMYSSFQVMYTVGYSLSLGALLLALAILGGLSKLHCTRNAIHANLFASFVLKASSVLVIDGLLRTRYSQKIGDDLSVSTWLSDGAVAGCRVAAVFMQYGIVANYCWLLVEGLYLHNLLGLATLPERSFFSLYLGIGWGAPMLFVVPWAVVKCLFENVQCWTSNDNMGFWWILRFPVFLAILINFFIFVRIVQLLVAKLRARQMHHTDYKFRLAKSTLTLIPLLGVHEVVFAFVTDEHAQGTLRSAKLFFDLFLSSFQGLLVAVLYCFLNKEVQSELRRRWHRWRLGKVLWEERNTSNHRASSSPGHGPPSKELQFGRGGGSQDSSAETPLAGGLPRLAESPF
- methodNotes: Functional cAMP activation in the presence of 0.1% casein (no HSA);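 note: intracellular cAMP rise after 30 min at 37 °C, read by HTRF against a cAMP standard curve, scaled from buffer only (0%) to maximal control ligand response (100%)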
- Type: cell-based
- settings: read-out: Relative cAMP EC50, hGcgR
Starred links: 1 amine or outer side, 2 acyl side, 3 side chain; linkers in the order of their positions; H or OH if unused. Non-standard residues stand in square brackets, D forms with d. Groups on a side chain read outwards from the residue. No end group written: not given here. *: point of attachment. C18 diacid = O=C(O)CCCCCCCCCCCCCCCCC(=O)*; αMePhe(2-F) = C[C@](N)(Cc1ccccc1F)C(=O)O; γGlu = O=C(O)[C@H](CCC(=O)[*:2])N[*:1]; αMe4Pal = C[C@](N)(Cc1ccncc1)C(=O)O; αMeY = C[C@](N)(Cc1ccc(O)cc1)C(=O)O; 4Pal = N[C@@H](Cc1ccncc1)C(=O)O; αMeL = CC(C)C[C@](C)(N)C(=O)O; αMeS = C[C@](N)(CO)C(=O)O; Orn = NCCC[C@H](N)C(=O)O; AEEA = NCCOCCOCC(=O)O; Aib = CC(C)(N)C(=O)O
readoutKind: pEC50
// pEC50 is dimensionless: -log10 of concentration (M)

Recorded results for 5 substances are shown here.
H-Y[Aib]QGT[αMePhe(2-F)]TSD[4Pal]SI[αMeL]LD[Orn]K([γGlu-γGlu-C18 diacid])AQ[αMe4Pal][Orn]FI[dE]YLIEGGPSSGEPPPEGT-NH2 [Example 541]: 8.37
H-Y[Aib]QGT[αMePhe(2-F)]TSD[4Pal][αMeS]I[αMeL]LD[Orn]K([AEEA-γGlu-C18 diacid])AQ[αMe4Pal]EFI[dE][αMeY]LIEGGPSSGEPPPSGTGE-NH2 [Example 711]: 8.89
H-Y[Aib]QGT[αMePhe(2-F)]TSD[4Pal][αMeS]I[αMeL]LD[Orn]K([γGlu-γGlu-C18 diacid])AQ[Aib][Orn]FI[dE][αMeY]LSEGGPSSGEPPPSGQEE-NH2 [Example 570]: 8.23
H-Y[Aib]QGT[αMePhe(2-F)]TSD[4Pal]SILLDKK([γGlu-γGlu-C18 diacid])AQ[Aib]AFIEWLEEGGPSSGAPPPSGTE-NH2 [Example 549]: 8.47
H-Y[Aib]QGT[αMePhe(2-F)]TSD[4Pal]SILLD[Orn]K([γGlu-γGlu-C18 diacid])AQ[αMe4Pal][Orn]FI[dE]YLIEGGPSSGEPPPSGTEE-NH2 [Example 584]: 8.28

Just so you know, measured pEC50 for Y[Aib]QGT[αMePhe(2-F)]TSD[4Pal][αMeS]I[αMeL]LD[Orn]K([γGlu-γGlu-C18 diacid])AA[Aib]EFI[dE][αMeY]LIEGGPSSGEPPPSGGGE-NH2 [Example 748] came out at 8.85

Just so you know, measured pEC50 for H-Y[Aib]QGT[αMePhe(2-F)]TSD[4Pal]SI[αMeL]LD[Orn]K([AEEA-γGlu-C18 diacid])AQ[αMe4Pal][Orn]FI[dE][αMeY]LIEGGPSSGEPPPEGTGE-NH2 [Example 680] came out at 8.70

FYI, the data here is from patent US20240270821A1.
